Biological target: cMET receptor tyrosine kinase (GST-cMET (969-1390)) (Homo sapiens)
Assay: EPK cMET profiling assay (LanthaScreen TR-FRET antibody based kinase phosphorylation assay)
Conditions: purified recombinant GST-cMET (969-1390), 2 μM ATP, 50 nM Fluorescein-PolyEAY, 60 minutes at room temperature; read-out: c-Met IC50
IC50 strictly less than 40 nM = Condition met. Otherwise Condition not met.

[
  {
    "molecule": "[2H]C([2H])(c1ccc2ncccc2c1)c1cnc2ccc(-c3cnn(C)c3)nn12",
    "target.of.assay": "cMET receptor tyrosine kinase (GST-cMET (969-1390)) (Homo sapiens)",
    "assigned.category": "Condition not met"
  },
  {
    "molecule": "OCCn1cc(-c2ccc3ncc(Cc4c(F)cc5ncccc5c4F)n3n2)cn1",
    "target.of.assay": "cMET receptor tyrosine kinase (GST-cMET (969-1390)) (Homo sapiens)",
    "assigned.category": "Condition met"
  },
  {
    "molecule": "CC(C)Nc1ccc2ncc(Cc3ccc4ncccc4c3)n2n1",
    "target.of.assay": "cMET receptor tyrosine kinase (GST-cMET (969-1390)) (Homo sapiens)",
    "assigned.category": "Condition met"
  }
]

Ask: Find out if reported IC50 for Cn1cc(-c2ccc3ncc(Cc4ccc5ncn(C)c5c4)n3n2)cn1 is less than 40 nM
Result: Condition met

Ask: Find out if reported IC50 for CN1CCC(n2cc(-c3ccc4ncc(Cc5ccc6ncccc6c5Cl)n4n3)cn2)CC1 is less than 40 nM
Result: Condition not met

Ask: Find out if reported IC50 for c1ccc(CNc2ccc3ncc(Cc4ccc5ncccc5c4)n3n2)cc1 is less than 40 nM
Result: Condition not met

Ask: Find out if reported IC50 for CC(c1ccc2nccn2c1)c1cnc2ccc(Cl)nn12 (racemic) is less than 40 nM
Result: Condition not met

Ask: Find out if reported IC50 for Cn1cc(-c2ccc3ncc(Cc4ccc5ncc(C#N)n5c4)n3n2)cn1 is less than 40 nM
Result: Condition not met

====

Target: cMET receptor tyrosine kinase (GST-cMET (969-1390)) (Homo sapiens, UniProt P08581)
Sequence (P08581 969-1390): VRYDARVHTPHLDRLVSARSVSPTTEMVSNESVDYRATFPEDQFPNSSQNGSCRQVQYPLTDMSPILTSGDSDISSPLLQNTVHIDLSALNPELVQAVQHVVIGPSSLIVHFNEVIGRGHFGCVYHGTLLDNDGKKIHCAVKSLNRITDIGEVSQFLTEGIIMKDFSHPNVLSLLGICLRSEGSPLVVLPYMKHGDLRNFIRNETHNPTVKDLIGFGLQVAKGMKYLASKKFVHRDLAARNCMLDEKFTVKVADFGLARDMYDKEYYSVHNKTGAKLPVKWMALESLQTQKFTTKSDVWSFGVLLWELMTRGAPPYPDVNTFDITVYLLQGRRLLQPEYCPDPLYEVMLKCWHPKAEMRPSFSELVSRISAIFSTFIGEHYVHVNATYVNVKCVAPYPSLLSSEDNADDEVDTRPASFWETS
Assay: EPK cMET profiling assay (LanthaScreen TR-FRET antibody based kinase phosphorylation assay)
Conditions: purified recombinant GST-cMET (969-1390), 2 μM ATP, 50 nM Fluorescein-PolyEAY, 60 minutes at room temperature; read-out: c-Met IC50
Exercise: for every item that follows, state its recorded IC50.
Give bare numbers, in µM.

[
  {
    "entry.smiles": "C[C@@H](c1ccc2c(cnn2CCO)c1)c1cnc2ccc(-c3cnn(C)c3)nn12",
    "IC50 / µM": 0.15
  },
  {
    "entry.smiles": "Cn1cc(-c2ccc3ncc(Cc4ccc(O)cc4F)n3n2)cn1",
    "IC50 / µM": 0.068
  },
  {
    "entry.smiles": "C=C(c1ccc2ncccc2c1)c1cnc2ccc(-c3cnn(C)c3)nn12",
    "IC50 / µM": 0.86
  }
]

With those in mind, consider the next compound.
Ask: Which IC50 is listed for CC(=O)N1CCC(n2cc(-c3ccc4ncc(Cc5cc6cccnc6cc5F)n4n3)cn2)CC1 ?
Result: 0.027

====

Molecular target: cMET receptor tyrosine kinase (GST-cMET (969-1390)) (Homo sapiens)
Experiment: EPK cMET profiling assay (LanthaScreen TR-FRET antibody based kinase phosphorylation assay)
Details: purified recombinant GST-cMET (969-1390), 2 μM ATP, 50 nM Fluorescein-PolyEAY, 60 minutes at room temperature; read-out: c-Met IC50
IC50 strictly less than 0.1 µM = yes. Otherwise no.

Check out these entries, answers already filled in.
[
  {
    "compound": "CC(c1ccc2ncccc2c1Cl)c1cnc2ccc(-c3cnn(C4CCN(C)CC4)c3)nn12 (stereo not drawn)",
    "assigned.category": "yes"
  },
  {
    "compound": "OCCn1cc(-c2ccc3ncc(Cc4cc5cccnc5cc4Cl)n3n2)cn1",
    "assigned.category": "yes"
  },
  {
    "compound": "COc1ccc(-c2ccc3ncc(Cc4ccc5ncccc5c4)n3n2)cn1",
    "assigned.category": "yes"
  }
]

Ask: Find out if reported IC50 for c1cnc2ccc(Cc3cnc4ccc(-n5ccnc5)nn34)cc2c1 is less than 0.1 µM
Result: yes

Ask: Find out if reported IC50 for O[C@@H]1CCN(c2ccc3ncc(Cc4ccc5ncccc5c4)n3n2)C1 is less than 0.1 µM
Result: yes

Ask: Find out if reported IC50 for Cn1cc(-c2ccc3ncc(Cc4ccc5occc5c4)n3n2)cn1 is less than 0.1 µM
Result: no

Ask: Find out if reported IC50 for c1cnc2ccc(Cc3cnc4ccc(N5CCCC5)nn34)cc2c1 is less than 0.1 µM
Result: yes

Ask: Find out if reported IC50 for COc1ccc(Cc2cnc3ccc(-c4cnn(C)c4)nn23)cc1 is less than 0.1 µM
Result: no

Ask: Find out if reported IC50 for Clc1ccccc1Nc1ccc2ncc(Cc3ccc4ncccc4c3)n2n1 is less than 0.1 µM
Result: yes

Ask: Find out if reported IC50 for Fc1ccc(-c2ccc3ncc(Cc4ccc5ncccc5c4)n3n2)cc1Cl is less than 0.1 µM
Result: no

Ask: Find out if reported IC50 for OCCNc1ccc2ncc(Cc3ccc4ncccc4c3)n2n1 is less than 0.1 µM
Result: yes

Ask: Find out if reported IC50 for Clc1cccc(Oc2ccc3ncc(Cc4ccc5ncccc5c4)n3n2)c1 is less than 0.1 µM
Result: yes

Ask: Find out if reported IC50 for CC(c1ccc2nccn2c1)c1cnc2ccc(-c3cnn(CCO)c3)nn12 (racemic) is less than 0.1 µM
Result: yes

Ask: Find out if reported IC50 for C[C@H](c1ccc2nccn2c1)c1cnc2ccc(-c3cnn(C)c3)nn12 is less than 0.1 µM
Result: no

Ask: Find out if reported IC50 for Clc1c(Cc2cnc3ccc(-c4cnn(C5CCNCC5)c4)nn23)ccc2ncccc12 is less than 0.1 µM
Result: yes

Ask: Find out if reported IC50 for CC(c1ccc2ncn(C)c2c1)c1cnc2ccc(-c3cnn(CCO)c3)nn12 (racemic) is less than 0.1 µM
Result: yes

Ask: Find out if reported IC50 for Cc1cccc(-c2ccc3ncc(C(C)c4ccc5nccn5c4)n3n2)c1 (racemic) is less than 0.1 µM
Result: yes

Ask: Find out if reported IC50 for c1cnc2ccc(Cc3cnc4ccc(-c5cnn(CCN6CCCC6)c5)nn34)cc2c1 is less than 0.1 µM
Result: no

Ask: Find out if reported IC50 for Cn1cc(-c2ccc3ncc(Cc4ccc5ncc(Br)n5c4)n3n2)cn1 is less than 0.1 µM
Result: yes

The measured values listed here are drawn from patent US8822468B2.
